# protocolSummary: Stability in human liver microsomes
# Assay type: in vitro ADME
# experimentalSetup: Table 3, read-out: HLM Clint
experimentalReadout: microsomal CLint at 1 h (µL/min/mg)
Return type: number; implicit unit µL/min/mg.

q: Need microsomal CLint at 1 h of CC(=O)N1CCc2c1ccc(Cl)c2Cl [Compound 4w, 1-(4,5-Dichloroindolin-1-yl)ethan-1-one] , thanks.
a: 140

----------
# Test system: MDR1
# protocolSummary: Permeability using MDR1-MDCKII cell monolayer
# Format: in vitro ADME
# experimentalSetup: dog, MDCK-MDR1, Table 3; apical to basal; read-out: MDCK-MDR1 AB Papp
experimentalReadout: Papp (×10⁻⁶ cm/s)
Return type: number; implicit unit ×10⁻⁶ cm/s.

q: Need Papp of CC(=O)N1CCc2c1ccc(Cl)c2Cl , thanks.
a: 35

----------
# protocolSummary: Permeability using MDR1-MDCKII cell monolayer
# Type: in vitro ADME
# experimentalSetup: dog, MDCK-MDR1, Table S3; mean n=2; read-out: A to B % Recovery
# Protocol: Selected compounds were routinely screened for aqueous solubility in PBS (pH 7.4), transit performance in MDCK-MDR1 cell lines for permeability, and metabolic stability in MLM and HLM as a measure of clearance. The main metabolites and routes of metabolism of 4y were determined in MLM. Assay protocols and additional data are presented in the Supplementary Material (Tables S1–S7). ADME studies reported in this work were performed by WuXi AppTec (Shanghai, China). […]
experimentalReadout: recovery (%)
Return type: number; implicit unit %.

q: Need recovery of CC(=O)N1CCc2c1ccc(Cl)c2Cl , thanks.
a: 75

----------
# protocolSummary: Stability in mouse liver microsomes
# Assay type: in vitro ADME
# experimentalSetup: Table 3, read-out: MLM Clint
experimentalReadout: microsomal CLint at 1 h (µL/min/mg)
Return type: number; implicit unit µL/min/mg.

CC(=O)N1CC2(CC2)c2c(Cl)cccc21 900
CC(=O)N1CCc2c1ccc(Cl)c2Cl 1200

q: Need microsomal CLint at 1 h of CC(=O)N1CCc2c1ccc(Cl)c2C(F)(F)F , thanks.
a: 650

----------
# protocolSummary: Stability in mouse liver microsomes
# Type: in vitro ADME
# experimentalSetup: mouse, read-out: MLM Stability t1/2
# Description: Selected compounds were routinely screened for aqueous solubility in PBS (pH 7.4), transit performance in MDCK-MDR1 cell lines for permeability, and metabolic stability in MLM and HLM as a measure of clearance. The main metabolites and routes of metabolism of 4y were determined in MLM. Assay protocols and additional data are presented in the Supplementary Material (Tables S1–S7). ADME studies reported in this work were performed by WuXi AppTec (Shanghai, China). […]
experimentalReadout: half-life at 1 h
Please don't drop the unit; write it after the number.

molecule	half-life at 1 h
O=C1CCC2Cc3ccccc3N12 (centres unmarked)	18 min

Turning now to a further record.
q: Need half-life at 1 h of O=C1N2c3ccccc3CC2CC1(F)F (centres unmarked) , thanks.
a: 16 min

----------
# protocolSummary: Permeability using MDR1-MDCKII cell monolayer
# Format: in vitro ADME
# experimentalSetup: dog, MDCK-MDR1, Table S3; mean n=2; read-out: B to A % Recovery
# Experimental: Selected compounds were routinely screened for aqueous solubility in PBS (pH 7.4), transit performance in MDCK-MDR1 cell lines for permeability, and metabolic stability in MLM and HLM as a measure of clearance. The main metabolites and routes of metabolism of 4y were determined in MLM. Assay protocols and additional data are presented in the Supplementary Material (Tables S1–S7). ADME studies reported in this work were performed by WuXi AppTec (Shanghai, China). […]
experimentalReadout: recovery (%)
Return type: number; implicit unit %.

q: Need recovery of CC(=O)N1CCc2c1ccc(Cl)c2Cl [Compound 4w, 1-(4,5-Dichloroindolin-1-yl)ethan-1-one] , thanks.
a: 81
